Just for reference, patent US20110287089A1 is where these values come from.

biological target: hTLR2/6 (Homo sapiens, UniProt O60603+Q9Y2C9); construct: host or cells: HEK-293 (293/hTLR2/6, clone hTLR 2/6-luc); type: cell-based
Sequence (O60603 21-784): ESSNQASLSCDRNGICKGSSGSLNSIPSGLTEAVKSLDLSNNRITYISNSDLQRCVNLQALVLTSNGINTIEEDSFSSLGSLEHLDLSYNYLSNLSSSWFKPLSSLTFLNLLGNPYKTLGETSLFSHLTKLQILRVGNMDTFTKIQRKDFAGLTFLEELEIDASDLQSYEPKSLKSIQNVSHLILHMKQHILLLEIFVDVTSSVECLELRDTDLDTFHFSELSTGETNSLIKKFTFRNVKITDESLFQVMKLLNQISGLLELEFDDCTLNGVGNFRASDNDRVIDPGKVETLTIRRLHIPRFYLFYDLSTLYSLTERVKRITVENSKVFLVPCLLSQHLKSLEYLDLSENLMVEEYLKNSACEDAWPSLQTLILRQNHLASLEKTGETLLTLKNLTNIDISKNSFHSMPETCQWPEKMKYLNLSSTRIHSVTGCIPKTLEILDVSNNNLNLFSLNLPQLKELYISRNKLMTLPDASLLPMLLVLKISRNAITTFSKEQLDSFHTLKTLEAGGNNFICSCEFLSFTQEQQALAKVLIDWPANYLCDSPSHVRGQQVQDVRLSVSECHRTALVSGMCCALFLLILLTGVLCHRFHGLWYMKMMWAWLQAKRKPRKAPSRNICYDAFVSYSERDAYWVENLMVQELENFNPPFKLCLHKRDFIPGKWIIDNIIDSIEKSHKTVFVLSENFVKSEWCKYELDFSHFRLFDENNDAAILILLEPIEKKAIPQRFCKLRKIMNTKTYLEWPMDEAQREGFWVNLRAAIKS
Sequence (Q9Y2C9 32-796): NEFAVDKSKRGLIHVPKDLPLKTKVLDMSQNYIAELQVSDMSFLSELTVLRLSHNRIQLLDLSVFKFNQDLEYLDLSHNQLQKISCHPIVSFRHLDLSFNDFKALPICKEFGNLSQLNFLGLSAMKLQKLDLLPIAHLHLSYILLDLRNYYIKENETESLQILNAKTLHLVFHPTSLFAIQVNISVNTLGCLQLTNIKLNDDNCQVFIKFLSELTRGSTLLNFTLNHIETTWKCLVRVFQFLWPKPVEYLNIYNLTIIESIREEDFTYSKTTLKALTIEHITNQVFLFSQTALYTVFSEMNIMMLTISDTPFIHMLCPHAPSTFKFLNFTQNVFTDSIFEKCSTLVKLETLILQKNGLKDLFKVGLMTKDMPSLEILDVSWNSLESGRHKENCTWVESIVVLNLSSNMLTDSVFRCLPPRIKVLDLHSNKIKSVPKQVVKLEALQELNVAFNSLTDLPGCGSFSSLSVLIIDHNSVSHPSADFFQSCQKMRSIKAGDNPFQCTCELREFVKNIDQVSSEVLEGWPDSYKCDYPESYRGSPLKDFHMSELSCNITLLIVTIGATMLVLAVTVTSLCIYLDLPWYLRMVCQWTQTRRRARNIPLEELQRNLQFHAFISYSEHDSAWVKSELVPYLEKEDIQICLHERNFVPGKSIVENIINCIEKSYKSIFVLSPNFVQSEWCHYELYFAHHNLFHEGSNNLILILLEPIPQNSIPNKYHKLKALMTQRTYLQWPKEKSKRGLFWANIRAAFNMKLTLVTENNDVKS
Peptide text beside a SMILES is read from it. * marks the point of attachment. X1 = CCCCCCCCCCCCCCCC(=O)OCC(C*)OC(=O)CCCCCCCCCCCCCCC
MEASURED_ENDPOINT: fold induction
Respond numerically, and do not add a unit to the figure.

Record CCCCCCCCCCCCCCCC(=O)OCC(CSC[C@H](N)C(=O)NCC(=O)N[C@@H](CC(=O)O)C(=O)N1CCC[C@H]1C(=O)N[C@@H](CCCCN)C(=O)N[C@@H](Cc1c[nH]cn1)C(=O)N1CCC[C@H]1C(=O)N[C@@H](CCCCN)C(=O)N[C@@H](CO)C(=O)N[C@@H](Cc1ccccc1)C(=O)O)OC(=O)CCCCCCCCCCCCCCC (stereo partly shown) [FSL-1] (H-C(X1)GDPKHPKSF-OH; N-terminus and C-terminus assumed) . Reported fold induction: 140

* * *

target: hTLR2 (Homo sapiens, UniProt O60603); construct: host or cells: HEK-293 (293/hTLR2-CD14, clone hTLR 2-luc); assay type: cell-based
Sequence (O60603 21-784): as the sequence (O60603 21-784) above
Sequence (Q9Y2C9 32-796 partner): as the sequence (Q9Y2C9 32-796) above
Peptide text beside a SMILES is read from it. * marks the point of attachment. X1 = CCCCCCCCCCCCCCCC(=O)OCC(C*)OC(=O)CCCCCCCCCCCCCCC
MEASURED_ENDPOINT: fold induction
Lab note: record just the number, no unit beside it.

What the record says about CCCCCCCCCCCCCCCC(=O)OCC(CSC[C@H](N)C(=O)NCC(=O)N[C@@H](CC(=O)O)C(=O)N1CCC[C@H]1C(=O)N[C@@H](CCCCN)C(=O)N[C@@H](Cc1c[nH]cn1)C(=O)N1CCC[C@H]1C(=O)N[C@@H](CCCCN)C(=O)N[C@@H](CO)C(=O)N[C@@H](Cc1ccccc1)C(=O)O)OC(=O)CCCCCCCCCCCCCCC (stereo partly shown) [FSL-1] (H-C(X1)GDPKHPKSF-OH; N-terminus and C-terminus assumed) : fold induction is 157
